Values compiled from patent US8895585B2.

Could you please report measured IC50 for the items listed next?
Test system: THP-1 cells
assay.explanation: TNFα generation assay
Assay type: cell-based, human
assay.context: Homo sapiens, THP-1, THP-1 cells; Table 22; read-out: IC50 in TNFα generation assay

Would you mind giving IC50 for every compound in the list below?
1. CCC[C@@H](Nc1nc(Nc2ccc3c(cnn3CCOC)c2)c(C(N)=O)cc1F)[C@@H](N)CC
2. C[C@H](N)[C@@H](CC1CC1)Nc1nc(Nc2ccnc(-n3cncn3)c2)c(C(N)=O)cc1F
3. CC[C@@H](Nc1nc(Nc2cncc(-c3cccc(OC)c3F)c2)c(C(N)=O)cc1F)[C@H](C)N
4. CC[C@@H](Nc1nc(Nc2ccnc(-c3cccc(OC)c3)c2)c(C(N)=O)cc1F)[C@H](C)N
5. CCC[C@@H](Nc1nc(Nc2cncc(C3CC3)c2)c(C(N)=O)cc1F)[C@H](C)N

RESULT:
< 65 nM
< 65 nM
< 65 nM
< 65 nM
< 65 nM
